Item-by-item account of growth inhibition
# procedure-text: NCI Yeast Anticancer Drug Screen. Data for the sgs1 mgt1 strain (AID 161);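 note: 0% = growth of cultures given vehicle only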
# condition-description: S. cerevisiae sgs1 mgt1 strain, at 50.0 µM, active compounds read high
# Method: Growth inhibition of yeast strains with defined genetic alterations is measured as a screen for potential anti-cancer activity. Selected strains with alterations in DNA damage repair or cell cycle control were exposed to compounds and growth inhibition was measured relative to vehicle treated controls. The strain used in this assay is sgs1 mgt1
Compounds without any hit were thinned out: in the full panel of roughly 79,000, 15% have a hit.
Give the value in % but do not write % after it.

These recorded examples may help you get a feel for the data.
molecule	growth inhibition (%)
COc1cc(CNc2nc3ccccc3n2Cc2ccccc2)cc(CN2CCOCC2)c1O	3.7
CC(=O)N(C)c1ccc(NC(=O)Nc2c(C)cccc2C)cc1	10.7
CNC(=O)c1ccc(/C=C/c2c[nH]c3ccccc23)[n+](C)c1	-9.05
COc1ccc(C(C#N)NC23CC4CC(CC(C4)C2)C3)cc1OC (stereo not drawn)	-25.1
NC(=S)N/N=C/c1cc(=O)c2cc(Cl)ccc2o1	42.3

For the molecule CSC(=S)Nc1nc2ccc(C)cc2s1 , give its measured growth inhibition value.
-2.95

Quote growth inhibition reported for CCCCCCCCCCCCCCCCCCSc1ccc2ccccc2c1 please.
20.4

Identify the reported growth inhibition for the following entry. O=C(N=C1[Se]C(=Nc2ccccc2)C(=Nc2ccccc2)N1c1ccc(Cl)cc1)c1ccccc1
-27.1

Input Cc1cc([N+](=O)[O-])ccc1NC(=O)C(Br)C(Br)C(=O)O (stereo not drawn) , output reported growth inhibition.
75.9
